- System: DMS-114
- Experiment: NCI tumour cell line growth inhibition, 48 h
Calls of active or inactive are those of the source. Cut-off read from the data, not from the text of the source: active = GI50 up to about 1.1 µM and inactive = higher.
Select the correct class. Options are active, inactive and nothing else.

As a guide, the following entries are already answered.
Compound: CC(=O)/C(=N\O)C(=O)NCc1ccccc1
Answer Label: inactive

Compound: CCCCCCCCCC[C@@H](O)[C@@H]1CC[C@@H]([C@@H]2CC[C@@H]([C@@H](O)CCCCCCCCCC[C@H](O)CC3=CC(C)OC3=O)O2)O1 (some centres undefined)
Answer Label: active

Compound: NC(CCSCCF)C(=O)O (centres undefined)
Answer Label: inactive

Ask: Entry COc1ccc(C2ON(c3ccccn3)CC=C2C)cc1 (centres undefined) : call = ?
Result: inactive

Ask: Write down the call the test reported for this compound. Item: CN(C)CCNC(=O)c1cccc2c1nc(-c1ccc(F)cc1)c1ccccc12
Result: inactive

Ask: What did the test return for COc1ccc(/C=C\c2cc(OC)c(OC)c(OC)c2)cc1OC ?
Result: active

Ask: Which outcome was entered for the compound CN1CCN(CCn2c3c4ccccc4ccc3c3oc(=O)c4ccccc4c32)CC1 in this test?
Result: inactive

Ask: What classification did Cc1cccc(C2=C/C(=C(\SS/C(C(=O)c3ccc(OCC(=O)O)c(Cl)c3Cl)=C3\C=C(c4cccc(C)c4)SS3)C(=O)c3ccc(OCC(=O)O)c(Cl)c3Cl)SS2)c1 end up with in this test?
Result: inactive

Ask: Test call, this compound: O=C(CN1CCN(c2ccccc2)CC1)N1CCc2c([nH]c3ccccc23)C1c1cccnc1 (centres undefined)
Result: inactive

----------
- Tested on: TK-10
- Experiment: NCI tumour cell line growth inhibition, 48 h
Active and inactive are the calls of the source. Cut-off read from the data, not from the text of the source: active = GI50 up to about 1.1 µM and inactive = higher.
Endpoint Name: GI50

Compound: CC1(C)O[C@@H](CP(c2cccc3ccccc23)c2cccc3ccccc23)[C@H](CP(c2cccc3ccccc23)c2cccc3ccccc23)O1
Endpoint Result: > 100 µM (inactive)
//
Compound: CN(C)CCNC(=O)c1cccc2c1nc(-c1ccc(F)cc1)c1ccccc12
Endpoint Result: 4.03 µM (inactive)
//
Compound: COc1ccc(NC(=O)C2C(=O)N(c3ccc(OC)cc3)C(=O)/C2=N/O)cc1 (stereo not given)
Endpoint Result: 23.9 µM (inactive)
//
Compound: Cc1nc(N)nc(S)c1CCC(=O)O
Endpoint Result: > 100 µM (inactive)

Ask: API: value(readout=GI50, system=TK-10) for record O=C(NNc1cn[nH]c(=O)c1Cl)/C(=C/c1ccc2c(c1)OCO2)NC(=O)c1ccccc1
Result: 34 µM (inactive)

Ask: Under TK-10: GI50 value of COc1c(C)c(C/C=C(\C)CCCC(C)CCCC(C)CCCC(C)C)c(OC)c2ccccc12 (stereo not given) ?
Result: > 100 µM (inactive)

Ask: State its GI50 on TK-10: CCCCCCCCCCCCc1ccsc1-c1ccc(-c2ccc(-c3sc(-c4cc(CCCCCCCCCCCC)c(-c5ccc(-c6ccc(-c7sccc7CCCCCCCCCCCC)s6)s5)s4)cc3CCCCCCCCCCCC)s2)s1
Result: > 100 µM (inactive)

Ask: Give the reported GI50 for Nc1nc(N)c2c(-c3ccccc3)ccnc2n1 (system: TK-10).
Result: > 100 µM (inactive)

Ask: Give recorded GI50 with TK-10 for the following compound: CC1=C(C(=O)Nc2ccccc2)C(c2ccc(N(C)C)cc2)C(C(=O)Nc2ccccc2)=C(C)N1
Result: 39.4 µM (inactive)

Ask: Which measured GI50 belongs to O=C(Nc1ccc2nc(-c3ccccc3)cn2c1)Oc1ccccc1 , tested on TK-10?
Result: 53.7 µM (inactive)

----------
- Test system: SF-295
- Experiment: NCI tumour cell line growth inhibition, 48 h
Activity calls are given as the source filed them. No stated cut-off is given here; in the data, active = GI50 up to about 1.1 µM and inactive = higher.
Choose the fitting class; nothing outside TRUE (active), FALSE (inactive) is accepted.

Compound: COc1ccc(/C=C/C(C(=O)O)C(=O)O)cc1
Answer Label: FALSE

Ask: Outcome? CC(=O)O[C@@]12CO[C@@H]1C[C@H](O)[C@@]1(C)C(=O)[C@H](O)C3=C(C)[C@@H](OC(=O)[C@H](O)[C@@H](NC(=O)OC(C)(C)C)c4ccccc4)C[C@@](O)([C@@H](OC(=O)c4ccccc4)[C@H]21)C3(C)C [DOCETAXEL]
Result: TRUE

Ask: Returns: the outcome recorded for NNC(=S)N1CCN(C(=S)NN)CC1 in this assay.
Result: FALSE

----------
- Tested on: Malme-3M
- Experiment: NCI tumour cell line growth inhibition, 48 h
Calls of active or inactive are those of the source. No stated cut-off is given here; in the data, active = GI50 up to about 1.1 µM and inactive = higher.
Endpoint Name: GI50

// worked examples, GI50 included
Compound: O=C(OCc1ccccc1CN1CCOCC1)c1cccc(Br)c1
GI50: 21.7 µM (inactive)
--
Compound: O=C1/C(=C\c2ccc([N+](=O)[O-])cc2)N(S(=O)(=O)c2ccccc2)c2ncccc21
GI50: 18.2 µM (inactive)
--
Compound: OC1CN(OC/C=C/c2ccccc2)CC(O)C1O (configuration not stated)
GI50: > 100 µM (inactive)
--
Compound: O=C(Nc1cccc(Cl)c1)c1cc2cc(/N=N/c3ccc(Br)cc3)ccc2oc1=O
GI50: > 100 µM (inactive)
--
Compound: CCCCc1c2c(nc3c1CCC/C3=C\c1ccccc1)C(=O)CCC2
GI50: 26 µM (inactive)

Ask: Reported GI50 for Cc1ccc2c(c1)C(O)(c1ccccc1)CCS2 (configuration not stated) : what is it?
Result: 32.9 µM (inactive)

Ask: Which value of GI50 has been reported for CN(CCCCN1CCCC1)CCCCN(C)C(=O)Cc1ccc(Cl)c(Cl)c1 in the records?
Result: 17.9 µM (inactive)

Ask: Fill in the blank: the reported GI50 of Nc1nc(O)c2c(ncn2CC(O)CO)n1 (configuration not stated) is ____.
Result: > 100 µM (inactive)

Ask: Requested read-out: GI50. Entry: CCN(CC)CCNc1ccc2ncn3c4c(OC)cccc4c(=O)c1c23
Result: 6.76 µM (inactive)

Ask: Need GI50, item Cc1cc2c(cc1C)C(=O)C1(C2)Cc2c(ccc(C)c2C)C1=O (configuration not stated)
Result: 98.6 µM (inactive)

Ask: Request the reported GI50 associated with O=S1(=O)NC2CCC3NS(=O)(=O)NC4CCC(N1)N4S(=O)(=O)N23 (configuration not stated)
Result: > 100 µM (inactive)

Ask: What value of measured GI50 is listed for CCCCCCCCCC(=O)N[C@H]1CCc2cc(OC)c(OC)c(OC)c2-c2ccc(SC)c(=O)cc21 ?
Result: 0.0226 µM (active)

Ask: Fill blank: measured GI50 of the compound CC(C)(C)OC(=O)NC(Cc1ccccc1)NC(=O)NC(=O)OCc1ccccc1 (configuration not stated) is ____.
Result: 41.8 µM (inactive)

----------
Reported GI50 values for a set of compounds
- Tested on: KM12
- Experiment: NCI tumour cell line growth inhibition, 48 h
The source made the active and inactive calls. Rule as the data show it: active = GI50 up to about 1.1 µM and inactive = higher.

Compound: COC(=O)[C@H]1ON2O[C@@H](O[C@H]3CCCC[C@@H]3C(C)(C)c3ccccc3)C[C@@H]3CC[C@H]1[C@@]32C
Endpoint Result: > 100 µM (inactive)
//
Compound: Nc1c(C(=O)O)nnc2cc(Cl)ccc12
Endpoint Result: > 100 µM (inactive)
//
Compound: Nc1nc(O)c2c(ncn2CC(O)CO)n1 (stereo unspecified)
Endpoint Result: > 100 µM (inactive)
//
Compound: Cc1sc2nc3n(c(=O)c2c1C)N=CN(c1ccccc1)C3
Endpoint Result: > 100 µM (inactive)
//
Compound: C=C(C)[C@@H](C(=O)OC)N1C(=O)c2ccccc2C1=O
Endpoint Result: > 100 µM (inactive)

Shifting focus to the compound that follows.
Ask: Lab note: need GI50 for OC1CN(OC/C=C/c2ccccc2)CC(O)C1O (stereo unspecified) on KM12, anyone have it?
Result: 72.3 µM (inactive)

----------
- System: RPMI-8226
- Experiment: NCI tumour cell line growth inhibition, 48 h
Calls of active or inactive are those of the source. Rule as the data show it: active = GI50 up to about 1.1 µM and inactive = higher.
Reported GI50 values for the following molecules.

Molecule: NCCc1ccc(S(=O)(=O)O)cc1[N+](=O)[O-]
Endpoint Result: > 100 µM (inactive)

Ask: For RPMI-8226, provide GI50 of CCCCCCCCCCSS(=O)(=O)c1ccc(C)cc1 please.
Result: 3.41 µM (inactive)

Ask: # value lookup — system RPMI-8226, readout GI50, item Cc1ccc2nc(/C=N/c3ccc(Cl)cc3)cc(C)c2c1
Result: 1.24 µM (inactive)

Ask: Tell me reported GI50 for COc1cccc2c1C(=O)c1ccc3cc(CO)cc(O)c3c1C2=O , tested with RPMI-8226.
Result: 0.74 µM (active)

----------
- Tested on: U-251
- Experiment: NCI tumour cell line growth inhibition, 48 h
Activity calls are given as the source filed them. Cut-off read from the data, not from the text of the source: active = GI50 up to about 1.1 µM and inactive = higher.
Endpoint Name: GI50

Example cases with answers are listed next.
Compound: CCCCCCCCCCSS(=O)(=O)c1ccc(C)cc1
Endpoint Result: 4 µM (inactive)

Compound: C=C1CC(CN2CCC(=O)NC2=O)(c2ccccc2)OC1=O (configuration not stated)
Endpoint Result: 17.7 µM (inactive)

Ask: What GI50 value was documented for this compound, Cn1c(=O)c2c3ccccc3c(C(=O)c3ccccc3)n2c2ccccc21 ?
Result: 18.9 µM (inactive)

Ask: Using the record for CN(C)c1ccc(/C=C/C=C(/C#N)c2ccccc2)cc1 , report its GI50.
Result: 17.1 µM (inactive)

Ask: Entry under review: O=C(Nc1nnc(-c2ccccc2)o1)C(SC(=S)N1CCCC1)c1ccccc1 (configuration not stated) . Reported GI50?
Result: 23.3 µM (inactive)

Ask: Data request, read-out GI50, for Cc1cc(C)c2c(O)cc(-c3ccc4ccccc4c3)nc2n1
Result: 16.7 µM (inactive)

Ask: Recorded GI50 for O=C(CSCC(=O)N/N=C/c1cccc(OCc2ccccc2)c1)N/N=C/c1cccc(OCc2ccccc2)c1 , please?
Result: 39.2 µM (inactive)

Ask: Consider the compound Cc1cc2cc3ccccc3cc2c(=O)[nH]1 and give its measured GI50.
Result: > 10 µM (inactive)

Ask: Look up GI50 for this compound: NNC(=O)C(=O)N/N=C1/CCCC1C(=O)CCC(=O)Nc1ccc(Cl)cc1 (configuration not stated)
Result: > 100 µM (inactive)

Measured values drawn from ChEMBL document CHEMBL1201862 for this set.
